test system: MOLT-4 leukemia; experiment: NCI tumour cell line growth inhibition, 48 h; in the data active = GI50 below about 0.43 µM; inactive = the rest
Possible outcomes: TRUE (active), FALSE (inactive)

{"Molecule": "CCNC(=O)c1noc(-c2cc(C(C)C)c(O)cc2O)c1-c1ccc(CN2CCOCC2)cc1", "Group Label": "TRUE"}
{"Molecule": "COc1ccc(/C(=N\\NC(=S)NN)C(c2ccc(OC)cc2)C2C(=O)Oc3ccccc32)cc1 (configuration not stated)", "Group Label": "FALSE"}
{"Molecule": "O=S(=O)(CCCl)c1ccc(Cl)cc1", "Group Label": "FALSE"}
{"Molecule": "Cc1ccc(-c2nc3nc(-c4ccc(F)cc4)nc(N4CCCNCC4)c3o2)cc1", "Group Label": "FALSE"}
{"Molecule": "O=C1CCCCN1CCCCC#Cc1cccc(C#Cc2cccnc2)c1", "Group Label": "FALSE"}
{"Molecule": "c1ccc2[nH]c(-c3ccc(Nc4nc(N5CCCCC5)nc(N5CCOCC5)n4)cc3)nc2c1", "Group Label": "FALSE"}
{"Molecule": "COc1ccc2c(c1)/C(=C/c1cc(OC)c(OC)c(OC)c1)C(=O)N2", "Group Label": "TRUE"}
{"Molecule": "COc1cc(NCCCCCCCNC(C)C)c2nccc(C)c2c1", "Group Label": "FALSE"}
{"Molecule": "COc1ccc(OC)c(Cn2cc3c(c2-c2ccccc2)CCc2cnoc2-3)c1", "Group Label": "FALSE"}
{"Molecule": "N#Cc1ccc(NC(=O)C(CC(=O)OCc2ccccc2)NC(=O)OCc2ccccc2)cc1 (configuration not stated)", "Group Label": "FALSE"}
{"Molecule": "Nc1ccc(/C=C/C(=O)NCc2cc3cc(-c4ccc(C(=O)N5CCC(F)(F)CC5)cc4)cc(-c4ccc(F)cc4)c3o2)cn1", "Group Label": "FALSE"}
{"Molecule": "O=c1c(F)cn(Cc2ccccc2CCl)c(=O)n1Cc1ccccc1CCl", "Group Label": "FALSE"}

* * *

Each entry below carries its recorded TGI.
test system: SK-OV-3 ovarian; assay: NCI tumour cell line growth inhibition, 48 h
Parameter Measured: TGI

{"Compound": "CCOC(=O)C(NC(=O)c1nc[nH]c1[N+](=O)[O-])C(C)C (stereo not given)", "Result": "> 100 µM"}
{"Compound": "COC(=O)C(/C(=N\\O)C(=O)Nc1cccc(Cl)c1C)c1cnc2ccccc2n1 (stereo not given)", "Result": "> 100 µM"}
{"Compound": "COc1ccc(CN2CCC/C=C/CC(Cl)(Cl)C2=O)cc1", "Result": "> 100 µM"}
{"Compound": "CN1CCN(c2cc3nsnc3c3nsnc23)CC1", "Result": "> 10 µM"}
{"Compound": "COC(=O)/C(C#N)=C(/NCCN)Nc1ccccc1", "Result": "> 100 µM"}
{"Compound": "O=C(/C=C/c1ccccc1)CC(=O)CCC(=O)Nc1ccc(Cl)cc1", "Result": "> 100 µM"}
{"Compound": "N#Cc1ccc(NC(=O)C(CC(=O)OCc2ccccc2)NC(=O)OCc2ccccc2)cc1 (stereo not given)", "Result": "> 100 µM"}
{"Compound": "O=[N+]([O-])c1ccc2c(c1)C1=NN(c3ccccc3)C(c3ccccc3Br)C1CCC2 (stereo not given)", "Result": "> 50 µM"}
{"Compound": "Cn1c2c(c3ccccc31)CCN(CCN1CCN(c3cccc(Cl)c3)CC1)C2=O", "Result": "> 100 µM"}
{"Compound": "CCCCCCCCCc1nn2c(Cc3ccccc3)nnc2s1", "Result": "66.7 µM"}
{"Compound": "CCOC(=O)/C(C#N)=C\\C=C(/Cl)c1ccc(Cl)cc1", "Result": "> 85.4 µM"}
{"Compound": "CN1/C(=C\\C=C\\C2=[N+](C)c3ccccc3C2(C)C)C(C)(C)c2ccccc21", "Result": "0.638 µM"}
{"Compound": "CCCSc1nc(-c2ccc(OC)cc2)c(C#N)c(=O)n1C1OC(COC(C)=O)C(OC(C)=O)C(OC(C)=O)C1OC(C)=O (stereo not given)", "Result": "> 100 µM"}
{"Compound": "O=c1[nH]c(Nc2cccc(CO)c2)nc2nc[nH]c12", "Result": "> 100 µM"}
{"Compound": "OCc1ccc2c(c1)CC1(Cc3ccc(/C=N/O)cc3C1)C2 (stereo not given)", "Result": "> 100 µM"}

* * *

Each entry below carries its recorded GI50.
system: HCT-15 colon; test: NCI tumour cell line growth inhibition, 48 h

{"Smiles Text": "Oc1ccccc1-c1nn(CNc2ccccc2Cl)c(=S)o1", "Measured On": "HCT-15 colon", "GI50": "17900 nM"}
{"Smiles Text": "C(=N\\Nc1nnn(Cc2ccccc2)n1)/c1ccccc1", "Measured On": "HCT-15 colon", "GI50": "1420 nM"}
{"Smiles Text": "Cc1ccc(-c2nc3nc(-c4ccc(F)cc4)nc(N4CCCNCC4)c3o2)cc1", "Measured On": "HCT-15 colon", "GI50": "1060 nM"}
{"Smiles Text": "O=c1c(F)cn(Cc2ccccc2CCl)c(=O)n1Cc1ccccc1CCl", "Measured On": "HCT-15 colon", "GI50": "1830 nM"}
{"Smiles Text": "O=C(N[C@@H](C[Se][Se]C[C@H](NC(=O)c1ccc(Br)cc1F)C(=O)O)C(=O)O)c1ccc(Br)cc1F", "Measured On": "HCT-15 colon", "GI50": "> 100000 nM"}

* * *

Each entry below carries its recorded TGI.
test system: NCI-H23 lung; test: NCI tumour cell line growth inhibition, 48 h

{"Molecule": "CC(=O)OC1C(COC(=O)c2ccccc2)OC(Nc2ncc(-c3ccc(Br)cc3)s2)C(OC(=O)c2ccccc2)C1OC(=O)c1ccccc1 (stereo not drawn)", "Measured On": "NCI-H23 lung", "TGI": "> 100 µM"}
{"Molecule": "CCOC(=O)c1cn2c(n1)sc1cc(Cl)cc(Cl)c12", "Measured On": "NCI-H23 lung", "TGI": "> 100 µM"}
{"Molecule": "Cc1ccc(-c2nc3nc(-c4ccc(F)cc4)nc(N4CCCNCC4)c3o2)cc1", "Measured On": "NCI-H23 lung", "TGI": "3.47 µM"}
{"Molecule": "CSC(=S)N/N=C/c1nccc2ccccc12", "Measured On": "NCI-H23 lung", "TGI": "5.03 µM"}
{"Molecule": "COc1ccc(NC(=S)NC(=O)c2ccc3c(c2)Sc2ccccc2O3)c([N+](=O)[O-])c1", "Measured On": "NCI-H23 lung", "TGI": "> 100 µM"}
{"Molecule": "COCCOCCOC1=CC(=O)c2c(O)ccc(O)c2C1=O", "Measured On": "NCI-H23 lung", "TGI": "3.23 µM"}
{"Molecule": "COc1ccc(N(C(=O)Nc2ccc(Cl)c(Cl)c2)C2c3cccn3C(=O)N2c2ccc(Cl)c(Cl)c2)cc1 (stereo not drawn)", "Measured On": "NCI-H23 lung", "TGI": "> 100 µM"}
{"Molecule": "Cc1ccc(NC(=O)c2cc(S(=O)(=O)N3C(=O)NC(=O)NS3(=O)=O)c(S)cc2Cl)cc1", "Measured On": "NCI-H23 lung", "TGI": "99.6 µM"}
{"Molecule": "N#Cc1nc(C2CCC2)oc1N", "Measured On": "NCI-H23 lung", "TGI": "> 100 µM"}
{"Molecule": "N#CNC(N)=Nc1ccc(Cl)cc1", "Measured On": "NCI-H23 lung", "TGI": "> 100 µM"}
{"Molecule": "CN(C)CCNC(=O)Cn1ccc(=O)c2c([N+](=O)[O-])cccc21", "Measured On": "NCI-H23 lung", "TGI": "> 100 µM"}
{"Molecule": "O=c1[nH]c(Nc2cccc(CO)c2)nc2nc[nH]c12", "Measured On": "NCI-H23 lung", "TGI": "> 100 µM"}
{"Molecule": "O=c1oc2ccc(I)cc2c(=O)n1-c1ccc(Cl)cc1F", "Measured On": "NCI-H23 lung", "TGI": "7.68 µM"}
{"Molecule": "Nc1ccc(/C=C/C(=O)NCc2cc3cc(-c4ccc(C(=O)N5CCC(F)(F)CC5)cc4)cc(-c4ccc(F)cc4)c3o2)cn1", "Measured On": "NCI-H23 lung", "TGI": "> 100 µM"}
{"Molecule": "CSC1=Nc2ccccc2N=C(c2ccc(Cl)cc2)C1", "Measured On": "NCI-H23 lung", "TGI": "> 100 µM"}
{"Molecule": "CCOC(=O)/C=C(\\C(=O)OCC)n1ccc(=O)n(Cc2cn(COCCOC(C)=O)nn2)c1=O", "Measured On": "NCI-H23 lung", "TGI": "32.6 µM"}
{"Molecule": "O=C1c2ccccc2NC(=S)[C@@H]2CCCN12", "Measured On": "NCI-H23 lung", "TGI": "> 100 µM"}
{"Molecule": "CSc1nnc(COc2ccc(Cl)cc2)o1", "Measured On": "NCI-H23 lung", "TGI": "> 100 µM"}
{"Molecule": "C(=N\\Nc1nnn(Cc2ccccc2)n1)/c1ccccc1", "Measured On": "NCI-H23 lung", "TGI": "> 53.8 µM"}
{"Molecule": "O=C(C(Cl)=C(N1CCOCC1)N1CCOCC1)C(Cl)Cl", "Measured On": "NCI-H23 lung", "TGI": "> 100 µM"}
{"Molecule": "O=c1cc(/C=C/c2ccccc2)[nH]c2cc3c(cc12)OCO3", "Measured On": "NCI-H23 lung", "TGI": "13.3 µM"}
{"Molecule": "COC(=O)/C(C#N)=C(/NCCN)Nc1ccccc1", "Measured On": "NCI-H23 lung", "TGI": "> 100 µM"}
{"Molecule": "C[N+](C)(C)CC1CCCCC1O (stereo not drawn)", "Measured On": "NCI-H23 lung", "TGI": "> 100 µM"}
{"Molecule": "CCOC(=O)/C(C#N)=C\\C=C(/Cl)c1ccc(Cl)cc1", "Measured On": "NCI-H23 lung", "TGI": "26.9 µM"}
{"Molecule": "Oc1ccccc1-c1nn(CNc2ccccc2Cl)c(=S)o1", "Measured On": "NCI-H23 lung", "TGI": "> 100 µM"}
{"Molecule": "CC(=O)c1ccc2c(c1)CC1(C2)Cc2ccccc2C1=O (stereo not drawn)", "Measured On": "NCI-H23 lung", "TGI": "> 100 µM"}
{"Molecule": "COc1ccc(COCC[C@H](C)OC2OC(CO[Si](C)(C)C(C)(C)C)C(OC(=O)CCCN=[N+]=[N-])C(OC(=O)CCCN=[N+]=[N-])C2OC(=O)CCCN=[N+]=[N-])cc1 (stereo partly drawn)", "Measured On": "NCI-H23 lung", "TGI": "> 100 µM"}
{"Molecule": "C[n+]1c(-c2ccc(/C=C/C=N\\NC(=O)c3ccc(C(=O)N/N=C\\C=C\\c4ccc(-c5cn6ccccc6[n+]5C)cc4)cc3)cc2)cn2ccccc21", "Measured On": "NCI-H23 lung", "TGI": "> 100 µM"}
{"Molecule": "CN(C)CCNC(=O)c1cccc2nc(-c3ccccc3)oc12", "Measured On": "NCI-H23 lung", "TGI": "> 100 µM"}
{"Molecule": "O=C1NCN(c2ccccc2)C12CCN(CCCN1CCN(CCOC(c3ccc(F)cc3)c3ccc(F)cc3)CC1)CC2", "Measured On": "NCI-H23 lung", "TGI": "9.69 µM"}
{"Molecule": "O=C1CSC2=NC3=C(COC/C3=C\\c3ccc(Br)cc3)C(c3ccc(Br)cc3)N12 (stereo not drawn)", "Measured On": "NCI-H23 lung", "TGI": "> 100 µM"}
{"Molecule": "CCOC(=O)C(NC(=O)c1nc[nH]c1[N+](=O)[O-])C(C)C (stereo not drawn)", "Measured On": "NCI-H23 lung", "TGI": "> 100 µM"}
{"Molecule": "Cn1cc(C2=C(c3cn(C4CCN(Cc5ccccn5)CC4)c4ccccc34)C(=O)NC2=O)c2ccccc21", "Measured On": "NCI-H23 lung", "TGI": "> 100 µM"}
{"Molecule": "C/C(=N\\NC(=O)CC#N)c1c(O)cc(C)oc1=O", "Measured On": "NCI-H23 lung", "TGI": "> 100 µM"}
{"Molecule": "CCCSc1nc(-c2ccc(OC)cc2)c(C#N)c(=O)n1C1OC(COC(C)=O)C(OC(C)=O)C(OC(C)=O)C1OC(C)=O (stereo not drawn)", "Measured On": "NCI-H23 lung", "TGI": "> 100 µM"}
{"Molecule": "Cc1ccccc1C(=O)N1CCN(C(=O)c2ccccc2C)CC1", "Measured On": "NCI-H23 lung", "TGI": "> 100 µM"}
{"Molecule": "COc1nc(C#CC(C)(C)C)nc(OC)n1", "Measured On": "NCI-H23 lung", "TGI": "68.5 µM"}
{"Molecule": "N#Cc1ccc(NC(=O)C(CC(=O)OCc2ccccc2)NC(=O)OCc2ccccc2)cc1 (stereo not drawn)", "Measured On": "NCI-H23 lung", "TGI": "> 100 µM"}
{"Molecule": "CN1CCN(c2cc3nsnc3c3nsnc23)CC1", "Measured On": "NCI-H23 lung", "TGI": "> 10 µM"}
{"Molecule": "Cc1c2c(OCC3CCCCO3)nn(C)c(=O)c2c(C)n1-c1ccccc1 (stereo not drawn)", "Measured On": "NCI-H23 lung", "TGI": "44.2 µM"}
{"Molecule": "NC(=O)N/N=C1\\CC2C3CC4C2C4C13 (stereo not drawn)", "Measured On": "NCI-H23 lung", "TGI": "> 100 µM"}
{"Molecule": "CCNC(=O)COc1ccc(Cl)cc1Cl", "Measured On": "NCI-H23 lung", "TGI": "> 100 µM"}
{"Molecule": "C=CC(OCC)(OCC)OCC", "Measured On": "NCI-H23 lung", "TGI": "> 100 µM"}
